Source: patent US9585880B2

target: AKAP18δ-PLB interaction (UniProt P26678+Q6JP77); experiment: AlphaScreen binding assay of the GST-AKAP18δ : PLB-biotin interaction; details: compound library screen; Table 1 compounds similar to those of formula (I); read-out: EC50
Sequence (Q6JP77 whole entry): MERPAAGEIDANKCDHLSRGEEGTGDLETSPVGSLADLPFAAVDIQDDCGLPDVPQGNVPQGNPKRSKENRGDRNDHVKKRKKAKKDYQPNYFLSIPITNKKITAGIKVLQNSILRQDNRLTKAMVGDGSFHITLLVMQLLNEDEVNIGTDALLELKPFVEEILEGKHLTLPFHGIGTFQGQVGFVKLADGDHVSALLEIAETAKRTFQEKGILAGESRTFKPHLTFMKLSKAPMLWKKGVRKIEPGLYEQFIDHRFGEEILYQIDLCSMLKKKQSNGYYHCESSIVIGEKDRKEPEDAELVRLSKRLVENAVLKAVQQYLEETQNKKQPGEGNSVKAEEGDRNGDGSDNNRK
Sequence (P26678 whole entry): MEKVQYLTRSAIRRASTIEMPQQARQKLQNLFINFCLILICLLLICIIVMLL
readout-name: EC50 (µM)

substance-smiles	EC50 [µM]
CN(C)c1ccc(CN(Cc2ccccc2)Cc2ccc(N(C)C)cc2)cc1	2

I. CC(C)(C)c1ccc(CN(CCC(c2ccccc2)c2ccccc2)Cc2nc(C(=O)O)cs2)cc1
II. O=C(O)c1csc(CN(Cc2ccc(F)cc2)Cc2cccc(C(F)(F)F)c2)n1
III. O=C(O)c1csc(CN(Cc2ccc(F)cc2)Cc2ccc(OCc3ccccc3)cc2)n1
Challenge: List by increasing EC50. Response format: the labels, sorted as the prompt asks.
Response given: I, III, II
(I: 21.1 µM, III: 39.5 µM, II: 60.5 µM)
